Test system: HOP-62 NSCLC
PROTOCOL TEXT: NCI-60 one-dose screen, 48 h (100 = growth as untreated, 0 = no growth, -100 = all killed)
STATED CONDITIONS: 10 µM unless noted
This is part of a sample that, as a whole, favours compounds with a hit. Of some 83,000 tested, about 20% had one in any assay. Calls of active or inactive are those of the source. The calls were made as follows: active = growth percent below 10; inactive = the rest.
Form field: growth (one value per entry).
ENDPOINT NAME: growth

>>> reported_measurement("O=C(NNC(=O)N1c2ccccc2C=Cc2ccccc21)c1ccc2ccccc2c1")
"99.1% (inactive)"
>>> reported_measurement("CC(C)(C)c1[nH]nc2c1C(c1cc3ccccc3[nH]c1=O)Nc1cc(C(=O)Nc3ccc(Cl)cc3)ccc1N2 (stereo not given)")
"83.6% (inactive)"
>>> reported_measurement("CCOC(=O)C1C(=O)C=C(c2ccc(OC)cc2)CC1c1sc(N(C)Cc2ccccc2)nc1Cl (stereo not given)")
"81.6% (inactive)"
>>> reported_measurement("CCCCN(CCCC)c1ccc(C(=N)c2ccc(N(CCCC)CCCC)cc2)cc1")
"-96.8% (active)"
>>> reported_measurement("N/C(=N\\S(=O)(=O)c1ccccc1)Nc1nc2ccccc2s1")
"86.3% (inactive)"
>>> reported_measurement("CCCCCc1cc[n+](CC(=O)c2ccc([N+](=O)[O-])cc2)cc1")
"79.8% (inactive)"
>>> reported_measurement("Nc1nc(Nc2cc(Cl)cc(Cl)c2)nn1S(=O)(=O)c1ccc2ccccc2c1")
"66% (inactive)"
>>> reported_measurement("C=C1CCC2C3(C)COC(C)(C)OC3CCC2(C)C1C/C=C1/C(=O)OCC1Oc1ccccc1OC (stereo not given)")
"105% (inactive)"
>>> reported_measurement("CCCCCCCCCCCCNC(=O)[C@H]1CSC(c2cc3ccccc3s2)N1 (stereo not given in full)")
"-96.3% (active)"
>>> reported_measurement("Cn1cc(-c2cnc3ccc(NC(=O)Nc4ccc(F)c(Br)c4)cc3n2)cn1")
"0.864% (active)"
>>> reported_measurement("O=C(/C=C/c1c[nH]c2ccccc12)c1ccc(O)c(CN2CCN(c3ccc(F)cc3)CC2)c1")
"95.9% (inactive)"
>>> reported_measurement("Cc1ccc2[nH]c(=O)c3c(c2c1)Oc1ncn2nc(-c4ccco4)nc2c1C3c1ccc(Cl)cc1 (stereo not given)")
"92.1% (inactive)"
>>> reported_measurement("CC(C)(C)n1cc(-c2ccnc(NCCCNS(=O)(=O)c3ccc(Cl)cc3)c2)c(-c2cccc(O)c2)n1")
"9.75% (active)"
>>> reported_measurement("CCCC(=O)Oc1ccc(/C(=C(\\C)c2ccccc2)c2ccc(OCCN(CC)CC)cc2)cc1")
"92.9% (inactive)"
>>> reported_measurement("O=C(CN1CCN(c2cc3c(cc2F)c(=O)c(C(=O)N/N=C/c2ccccc2O)cn3C2CC2)CC1)N/N=C\\c1ccccc1O")
"24.5% (inactive)"

====

Form field: growth (one value per entry).
System: SK-OV-3 ovarian
PROTOCOL TEXT: NCI-60 one-dose screen, 48 h (100 = growth as untreated, 0 = no growth, -100 = all killed)
STATED CONDITIONS: 10 µM unless noted
Experimental: Growth inhibition of the SK-OV-3 human tumor cell line is measured as a screen for anti-cancer activity. Cells are grown in 96 well plates and exposed to the test compound for 48 hours. Compounds are tested at a single concentration, which is 10^-5 M for most compounds. The reported endpoint is percent growth (GI% or GIPRCNT), where numbers from 0 - 100% represent growth inhibition, and numbers from -100% - 0 represent cell death. For example, a value of 40 represents 60% growth inhibition. […]
The panel holds about 83,000 compounds, 20% with a hit somewhere; the sample as a whole holds those more often.
ENDPOINT NAME: growth (%)

>>> reported_measurement("CC(C)(C)n1cc(-c2ccnc(NCCNS(=O)(=O)c3ccc(Cl)cc3)c2)c(-c2cccc(O)c2)n1")
90.4
>>> reported_measurement("O=S(=O)(CC(O)(c1ccccc1)c1ccccc1)CC(O)(c1ccccc1)c1ccccc1")
77
>>> reported_measurement("N[C@@H]1CCN(C(=O)c2cc3cc(Cl)c(F)c(F)c3[nH]2)C1")
89.3
>>> reported_measurement("Cc1ccc2nc(-c3cc4c([nH]c5ccccc54)c(-c4ccc(F)c(F)c4)n3)[nH]c2c1")
109
>>> reported_measurement("C=C1CCC2C(C)(CO)C(O)CCC2(C)C1C/C=C1/C(=O)OCC1Oc1ccccc1C (configuration not stated)")
122
>>> reported_measurement("CCOC(=O)c1c(/N=C2\\SC(=O)/C(=C\\C(=O)OC)N2NC)sc2c1CCN(C(=O)OCC)C2")
109
>>> reported_measurement("COc1cc(NC(N)=NCCC(C)(C)c2ccc(C(F)(F)F)cc2)ncc1C#N")
56.8
>>> reported_measurement("CCc1ccc(-c2ccc(=O)n(-c3ccc(S(N)(=O)=O)cc3)n2)cc1")
49.5
>>> reported_measurement("O=c1ccn(-c2ncnc3nc[nH]c23)cc1")
84.8
>>> reported_measurement("C=C[C@@H]1C[C@@H]2Cc3ccccc3N1O2")
114
>>> reported_measurement("CCCCOc1ccc(/C=C2/SC(N3CCCC3)=NC2=O)cc1")
96.9
>>> reported_measurement("C=C(C)[C@@H]1C[C@@H]2Cc3ccc(Cl)c(C)c3N1O2")
99.6
>>> reported_measurement("O=C1c2ccccc2-c2ccccc2C1(Cl)Cl")
94.5
>>> reported_measurement("COc1ccc2c(c1)[nH]c(=O)c1c3cc(OC)ccc3cn21")
42.4
>>> reported_measurement("COC(=O)c1cccc2c1N(C)c1c(cccc1C(=O)OC)CC2")
110
>>> reported_measurement("O=C(NCCNc1nccc(-n2ccc3cccnc32)n1)c1ccc(C(F)(F)F)cc1")
99.7
>>> reported_measurement("CC(C)(C)c1[nH]nc2c1C(c1cc3ccccc3[nH]c1=O)Nc1cc(C(=O)Nc3ccc(Cl)cc3)ccc1N2 (configuration not stated)")
90.6
>>> reported_measurement("COc1ccc(C2C=C(c3ccc(N)cc3)N=C3SC=CN32)cc1OC (configuration not stated)")
115
>>> reported_measurement("O=C(NCCCNc1nccc(-n2ccc3cccnc32)n1)c1c(F)cccc1F")
116
>>> reported_measurement("CCC(=O)OC1=CN2C(=NC(c3ccc(N)cc3)=CC2c2cc(OC)c(OC)c(OC)c2)S1 (configuration not stated)")
68.1
>>> reported_measurement("CCCCCCCCCCCCCCCCCCNC(=O)[C@H]1CSC(c2ccc(OC)cc2O)N1 (some centres not stated)")
96.4
>>> reported_measurement("c1cc2[nH]ncc2cc1-c1nc2ccc3[nH]ncc3c2c2c1CCC2")
5.23

====

Test system: EKVX NSCLC
PROTOCOL TEXT: NCI-60 one-dose screen, 48 h (100 = growth as untreated, 0 = no growth, -100 = all killed)
STATED CONDITIONS: 10 µM unless noted
About 83,000 compounds went through this panel and 20% of them were active in at least one assay; those are over-represented in the sample as a whole.
Label Y when growth is at or above 60%; otherwise label N.

>>> assigned_category("CN(C)CC(C(=O)c1ccccc1)c1ccccc1 (centres undefined)")
"Y"
>>> assigned_category("Cc1nc2c3c(ncn2n1)Oc1c(c(=O)[nH]c2ccccc12)C3c1ccc(Cl)cc1 (centres undefined)")
"Y"
>>> assigned_category("Cc1ccc(/C=C2\\CN(C(=O)CCN3CCC(=NO)CC3)C/C(=C\\c3ccc(C)cc3)C2=O)cc1")
"N"
>>> assigned_category("COc1cc2c(c(OC)c1OC)-c1ccc(N)c(=O)cc1[C@@H](NC(C)=O)CC2")
"N"
>>> assigned_category("COc1cc(NCCCCCN)c2ncccc2c1")
"Y"
>>> assigned_category("c1cc(C2=N[C@@H]3c4ccccc4C[C@@H]3O2)nc(C2=N[C@@H]3c4ccccc4C[C@@H]3O2)c1")
"Y"
>>> assigned_category("O=C(c1c[nH]c(=O)c(-c2ccccc2)c1)c1ccccc1O")
"Y"
>>> assigned_category("N/C(=N\\C(N)=N\\c1nc2ccccc2s1)c1cccc(Br)c1")
"Y"
>>> assigned_category("CC(C)C(C(=O)NCCN1CCOCC1)N1C(=O)/C(=C/c2ccc(Br)cc2)SC1=S (centres undefined)")
"Y"
>>> assigned_category("CCCCCCCCN(CCCCCCCC)CCCCCCNc1cc(OC)cc2cccnc12")
"Y"
>>> assigned_category("COc1ccc(/C=N\\NC(=O)CN2CCN(c3cc4c(cc3F)c(=O)c(C(=O)N/N=C/c3ccc(OC)c(OC)c3)cn4C3CC3)CC2)cc1OC")
"N"
>>> assigned_category("Cc1c(C(=N)C(C#N)C#N)c(=N)oc2c1ccc1ccccc12")
"N"
>>> assigned_category("N=c1ccc2nc3ccc(N)cc3sc-2c1")
"N"
>>> assigned_category("CC1=C(C#N)C(=O)NC(C)C1 (centres undefined)")
"Y"
>>> assigned_category("CCOC(=O)c1cc(C(=O)c2cc(OC)c(OC)c(OC)c2)n2c1ccc1ccccc12")
"N"
>>> assigned_category("Cn1ccc(Nc2nccc(Oc3ccc(C(=O)Nc4cccc(F)c4)c(Cl)c3)n2)c1")
"N"
>>> assigned_category("O=C1Nc2ccc(Cl)cc2C12Nc1cc(Cl)ccc1S2 (centres undefined)")
"Y"
>>> assigned_category("Cc1ccc(-c2cc3nc(C(Cl)Cl)nc(-c4ccccc4C)n3n2)cc1")
"Y"
